# protocol.details: Acute toxicity test in mice
# condition.info: mouse, in vivo, ip, intraperitoneal injection
Assign LD50 to each entry below.

Problem: Returns the measured LD50 for the input compound. Input: COc1cc2cc(c1Cl)N(C)C(=O)CC(OC(=O)CC(C)C)C1(C)OC1C(C)C1CC(O)(NC(=O)O1)C(OC)C=CC=C(C)C2 (centres unmarked)
Result: > 0.313 mg/kg

Problem: Returns the measured LD50 for the input compound. Input: COc1cc2cc(c1Cl)N(C)C(=O)CC(OC(=O)C(C)C)C1(C)OC1C(C)C1CC(O)(NC(=O)O1)C(OC)C=CC=C(C)C2 (centres unmarked)
Result: > 0.313 mg/kg
